- PROTOCOL_TEXT: activity coefficient (dimensionless); of the first substance listed, at infinite dilution; xn = mol fraction of the nth substance listed
- DETAILS: 303.15 K; Liquid; Static method; x1 = 0
Collected activity coefficient values appear next to each entry.
Please state the value as a number alone, without comment.

Output activity coefficient of CCCCO [butan-1-ol] + CCCCCCC
31.3

Output activity coefficient of CCCO [propan-1-ol] + CCCCCCC
36.2

Further cases:
Output activity coefficient of CCCO [propan-1-ol] + CCCCCCCC
34.2

Output activity coefficient of CCCCO [butan-1-ol] + CCCCCCCC
32.1

###

- PROTOCOL_TEXT: activity coefficient (dimensionless); of the first substance listed, at infinite dilution; xn = mol fraction of the nth substance listed
- DETAILS: 323.15 K; Liquid; Static method; x1 = 0
Collected activity coefficient values appear next to each entry.
Please state the value as a number alone, without comment.

Output activity coefficient of CCCO [propan-1-ol] + CCCCCCCC
20.5

Output activity coefficient of CCCO [propan-1-ol] + CCCCCCC
21.2

Output activity coefficient of CCCCO [butan-1-ol] + CCCCCCCC
18.4

Proceeding to the next compound to report its activity coefficient.
Output activity coefficient of CCCCO [butan-1-ol] + CCCCCCC
19.3

###

- PROTOCOL_TEXT: activity coefficient (dimensionless); of the first substance listed, at infinite dilution; xn = mol fraction of the nth substance listed
- DETAILS: 313.15 K; Liquid; Static method; x1 = 0
Collected activity coefficient values appear next to each entry.

Reference set, count: 3
Output activity coefficient of CCCO [propan-1-ol] + CCCCCCC
27.2

Output activity coefficient of CCCCO [butan-1-ol] + CCCCCCC
24.5

Output activity coefficient of CCCO [propan-1-ol] + CCCCCCCC
26.5

Further cases:
Output activity coefficient of CCCCO [butan-1-ol] + CCCCCCCC
23.9

###

- PROTOCOL_TEXT: activity coefficient (dimensionless); of the first substance listed, at infinite dilution; xn = mol fraction of the nth substance listed
- DETAILS: 343.15 K; Liquid; Static method; x1 = 0
Collected activity coefficient values appear next to each entry.
Please state the value as a number alone, without comment.

Reference set, count: 3
Output activity coefficient of CCCCO [butan-1-ol] + CCCCCCC
11.6

Output activity coefficient of CCCCO [butan-1-ol] + CCCCCCCC
11.2

Output activity coefficient of CCCO [propan-1-ol] + CCCCCCC
12.5

Proceeding to the next compound to report its activity coefficient.
Output activity coefficient of CCCO [propan-1-ol] + CCCCCCCC
12.9
